Numbers sourced from patent US10800784B2.

Listing of entries alongside the reported IC50.
- measurement target: human PDHK1 (hPDHK1) (Homo sapiens (Human), UniProt Q15118)
- Sequence (Q15118 29-436): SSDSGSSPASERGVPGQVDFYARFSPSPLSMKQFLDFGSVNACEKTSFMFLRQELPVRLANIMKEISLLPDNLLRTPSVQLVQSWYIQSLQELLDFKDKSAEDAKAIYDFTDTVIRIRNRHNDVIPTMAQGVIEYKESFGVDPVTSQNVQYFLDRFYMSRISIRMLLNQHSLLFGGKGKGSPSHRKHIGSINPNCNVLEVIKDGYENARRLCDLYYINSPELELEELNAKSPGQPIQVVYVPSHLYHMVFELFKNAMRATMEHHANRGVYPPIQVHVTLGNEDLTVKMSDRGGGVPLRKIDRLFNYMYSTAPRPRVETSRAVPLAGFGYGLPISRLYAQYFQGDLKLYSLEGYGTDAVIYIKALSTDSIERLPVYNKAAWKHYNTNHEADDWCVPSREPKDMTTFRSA
- test method notes: Inhibitory action of PDHK1 activity in vitro (residual PDH activity after PDHK reaction)
- Format: biochemical
- details: PDH/hPDHK1 complex solution, PDHK reaction at room temperature for 45 min, NADH absorbance at 340 nm; read-out: hPDK1 IC50

Here's what some known entries look like.
C[C@H]1CN(C(=O)c2n[nH]c3ccccc23)Cc2onc([C@@](C)(O)C(F)(F)F)c21 :: < 3 nM
C[C@H]1CN(C(=O)c2nn(C)c3cc(F)cc(F)c23)Cc2cnc([C@@](C)(O)C(F)(F)F)n21 :: 8 nM

# context switch: different compound, same IC50
For `C[C@H]1CN(C(=O)c2nn(C)c3cc(C#N)ccc23)Cc2cnc([C@@](C)(O)C(F)(F)F)n21` the compound record lists IC50 as < 3 nM

----------
Listing of entries alongside the reported pIC50.
- measurement target: human PDHK1 (hPDHK1) (Homo sapiens (Human))
- test method notes: Inhibitory action of PDHK1 activity in vitro (residual PDH activity after PDHK reaction)
- Format: biochemical
- details: PDH/hPDHK1 complex solution, PDHK reaction at room temperature for 45 min, NADH absorbance at 340 nm; read-out: hPDK1 IC50
- Method: The inhibitory action of PDHK activity was assessed indirectly by measuring the residual PDH activity after PDHK reaction in the presence of a test compound. (Inhibitory Action of PDHK1 Activity) In the case of human PDHK1 (hPDHK1, NCBI Reference Database Accession number NM_002610.3), a 1.3 kbp fragment encoding this protein was isolated from human liver cDNA by polymerase chain reaction (PCR). […]
FYI, pIC50 means -log10 of a concentration in mol per litre.

Here's what some known entries look like.
C[C@H]1CN(C(=O)C2(C)CN(c3ccc(F)cn3)C2)Cc2cnc([C@@](C)(O)C(F)(F)F)n21 :: 7.18
C[C@H]1CN(C(=O)c2cc(-c3ccc(S(C)(=O)=O)cc3)nn2C)Cc2cnc([C@@](C)(O)C(F)(F)F)n21 :: 8.30
C[C@H]1CN(C(=O)c2ccc(F)c(-c3ccncc3C#N)c2)Cc2cnc([C@@](C)(O)C(F)(F)F)n21 :: 8.30
C[C@H]1CN(C(=O)c2ccnc(-c3ccc(C#N)cc3F)c2)Cc2cnc([C@@](C)(O)C(F)(F)F)n21 :: 8.52

Tested on human PDHK1 (hPDHK1) (Homo sapiens (Human)), the item `C[C@H]1CN(C(=O)c2ccc(F)c(-c3ccc(C#N)cn3)c2)Cc2cnc([C@@](C)(O)C(F)(F)F)n21` showed pIC50 equal to 8.52

----------
- measurement target: UniProt Q15118
- test method notes: Inhibitory action of PDHK1 activity in vitro (residual PDH activity after PDHK reaction)
- details: PDH/hPDHK1 complex solution, PDHK reaction at room temperature for 45 min, NADH absorbance at 340 nm; read-out: hPDK1 IC50
pIC50: −log10 of the molar value.
property label: pIC50

Here's what some known entries look like.
C[C@H]1CN(C(=O)c2n[nH]c3c2CCC(C)(C)C3)Cc2onc([C@@](C)(O)C(F)(F)F)c21 :: > 8.52
C[C@H]1CN(C(=O)c2cc(-c3ccc(F)cc3)ccn2)Cc2cnc([C@@](C)(O)C(F)(F)F)n21 :: > 8.52

# context switch: different molecule, same pIC50
For `C[C@H]1CN(C(=O)c2cc(-c3ccc(F)cc3F)nn2C)Cc2cnc([C@@](C)(O)C(F)(F)F)n21` the molecule record lists pIC50 as > 8.52
